target-of-assay: T1, human plasminogen, P00747
T1 chain: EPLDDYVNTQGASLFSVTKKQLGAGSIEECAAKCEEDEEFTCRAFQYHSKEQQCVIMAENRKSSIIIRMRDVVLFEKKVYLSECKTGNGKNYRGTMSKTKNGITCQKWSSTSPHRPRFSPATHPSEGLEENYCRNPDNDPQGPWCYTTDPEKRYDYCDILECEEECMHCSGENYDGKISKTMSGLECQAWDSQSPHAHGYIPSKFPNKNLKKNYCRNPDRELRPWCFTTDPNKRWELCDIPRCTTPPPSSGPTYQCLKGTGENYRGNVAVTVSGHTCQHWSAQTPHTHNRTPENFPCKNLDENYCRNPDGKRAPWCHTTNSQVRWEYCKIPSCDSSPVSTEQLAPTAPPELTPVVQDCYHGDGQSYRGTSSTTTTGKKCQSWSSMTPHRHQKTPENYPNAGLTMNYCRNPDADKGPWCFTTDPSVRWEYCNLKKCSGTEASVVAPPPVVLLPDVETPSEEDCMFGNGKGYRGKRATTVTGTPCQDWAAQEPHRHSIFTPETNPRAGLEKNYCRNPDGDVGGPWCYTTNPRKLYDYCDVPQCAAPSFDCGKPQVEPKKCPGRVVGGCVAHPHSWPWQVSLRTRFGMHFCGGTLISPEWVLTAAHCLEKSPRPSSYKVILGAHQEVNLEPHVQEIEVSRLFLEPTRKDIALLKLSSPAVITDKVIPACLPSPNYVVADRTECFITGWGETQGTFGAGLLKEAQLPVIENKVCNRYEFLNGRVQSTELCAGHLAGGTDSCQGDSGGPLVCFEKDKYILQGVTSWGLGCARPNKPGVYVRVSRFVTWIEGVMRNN
For each record, check the reported Specific Activity (U/mg): if it is below 60 U/mg write True, else write False.

// below: answered proteins
protein="SAK 1CNT (protein) MCSSSFDKGKYKKGDDASYFEPTGPYLMVNVTGVDGKGNELLSPHYVEFPIKPGTTLTKEKIEYYVEWALDATAYKEFRVVELDPSAKIEVTYYDKNKKKEETKSFPITEKGFVVPDLSEHIKNPGFNLITKVVIEKK" cat=True
protein="SAK 2CCT (protein) SSSFDKGKYKKGDDASYFEPTGPYLMVNVTGVDGKGNELLSPHYVEFPIKPGTTLTKEKIEYYVEWALDATAYKEFRVVELDPSAKIEVTYYDKNKKKEETKSFPITEKGFVVPDLSEHIKNPGFNLITKVVIEKKCC" cat=False
protein="SAK (Recombinant) (protein) SSSFDKGKYKKGDDASYFEPTGPYLMVNVTGVDGKGNELLSPHYVEFPIKPGTTLTKEKIEYYVEWALDATAYKEFRVVELDPSAKIEVTYYDKNKKKEETKSFPITEKGFVVPDLSEHIKNPGFNLITKVVIEKK" cat=False

# next protein below
Incoming: Criterion: Specific Activity (U/mg) strictly below 60 U/mg. Is it met by SAK 1CCT (protein) SSSFDKGKYKKGDDASYFEPTGPYLMVNVTGVDGKGNELLSPHYVEFPIKPGTTLTKEKIEYYVEWALDATAYKEFRVVELDPSAKIEVTYYDKNKKKEETKSFPITEKGFVVPDLSEHIKNPGFNLITKVVIEKKAC ?
Outgoing: False
